# run.conditions: in n-heptanol, 318.15 K
experimental.endpoint: solubility (mole fraction)
// print number alone

I am curious: what solubility (mole fraction) value has been reported for O=c1nc[nH]c2[nH]ncc12 ?
0.000418

* * *

# run.conditions: in DMF, 318.15 K
experimental.endpoint: solubility (mole fraction)
// print number alone

I am curious: what solubility (mole fraction) value has been reported for O=c1nc[nH]c2[nH]ncc12 ?
0.00785

* * *

# run.conditions: in ethanol, 313.15 K
experimental.endpoint: solubility (mole fraction)
// print number alone

I am curious: what solubility (mole fraction) value has been reported for O=c1nc[nH]c2[nH]ncc12 ?
0.000139

* * *

# run.conditions: in acetone, 323.15 K
experimental.endpoint: solubility (mole fraction)

I am curious: what solubility (mole fraction) value has been reported for O=c1nc[nH]c2[nH]ncc12 ?
0.00314

* * *

# run.conditions: in ethanol, 333.15 K
experimental.endpoint: solubility (mole fraction)
// print number alone

I am curious: what solubility (mole fraction) value has been reported for O=c1nc[nH]c2[nH]ncc12 ?
0.00031

* * *

# run.conditions: in n-hexanol, 308.15 K
experimental.endpoint: solubility (mole fraction)
// print number alone

I am curious: what solubility (mole fraction) value has been reported for O=c1nc[nH]c2[nH]ncc12 ?
0.000259

* * *

# run.conditions: in n-butanol, 308.15 K
experimental.endpoint: solubility (mole fraction)
// print number alone

I am curious: what solubility (mole fraction) value has been reported for O=c1nc[nH]c2[nH]ncc12 ?
0.000219

* * *

# run.conditions: in n-propanol, 323.15 K
experimental.endpoint: solubility (mole fraction)
// print number alone

I am curious: what solubility (mole fraction) value has been reported for O=c1nc[nH]c2[nH]ncc12 ?
0.000293

* * *

# run.conditions: in methanol, 328.15 K
experimental.endpoint: solubility (mole fraction)
// print number alone

I am curious: what solubility (mole fraction) value has been reported for O=c1nc[nH]c2[nH]ncc12 ?
0.000235

* * *

# run.conditions: in n-heptanol, 328.15 K
experimental.endpoint: solubility (mole fraction)

I am curious: what solubility (mole fraction) value has been reported for O=c1nc[nH]c2[nH]ncc12 ?
0.000544

* * *

# run.conditions: in n-butanol, 283.15 K
experimental.endpoint: solubility (mole fraction)
// print number alone

I am curious: what solubility (mole fraction) value has been reported for O=c1nc[nH]c2[nH]ncc12 ?
8.13e-05

* * *

# run.conditions: in DMF, 323.15 K
experimental.endpoint: solubility (mole fraction)
// print number alone

I am curious: what solubility (mole fraction) value has been reported for O=c1nc[nH]c2[nH]ncc12 ?
0.00898

* * *

# run.conditions: in methanol, 278.15 K
experimental.endpoint: solubility (mole fraction)

I am curious: what solubility (mole fraction) value has been reported for O=c1nc[nH]c2[nH]ncc12 ?
2.05e-05

* * *

# run.conditions: in 1,4-dioxane, 293.15 K
experimental.endpoint: solubility (mole fraction)
// print number alone

I am curious: what solubility (mole fraction) value has been reported for O=c1nc[nH]c2[nH]ncc12 ?
4.64e-05

* * *

# run.conditions: in methanol, 308.15 K
experimental.endpoint: solubility (mole fraction)
// print number alone

I am curious: what solubility (mole fraction) value has been reported for O=c1nc[nH]c2[nH]ncc12 ?
9.62e-05

* * *

# run.conditions: in 2-butanone, 333.15 K
experimental.endpoint: solubility (mole fraction)
// print number alone

I am curious: what solubility (mole fraction) value has been reported for O=c1nc[nH]c2[nH]ncc12 ?
0.00491

* * *

# run.conditions: in n-heptanol, 313.15 K
experimental.endpoint: solubility (mole fraction)
// print number alone

I am curious: what solubility (mole fraction) value has been reported for O=c1nc[nH]c2[nH]ncc12 ?
0.000365

* * *

# run.conditions: in acetone, 298.15 K
experimental.endpoint: solubility (mole fraction)

I am curious: what solubility (mole fraction) value has been reported for O=c1nc[nH]c2[nH]ncc12 ?
0.00139

* * *

# run.conditions: in NMP, 333.15 K
experimental.endpoint: solubility (mole fraction)

I am curious: what solubility (mole fraction) value has been reported for O=c1nc[nH]c2[nH]ncc12 ?
0.0531

* * *

# run.conditions: in isopropanol, 288.15 K
experimental.endpoint: solubility (mole fraction)
// print number alone

I am curious: what solubility (mole fraction) value has been reported for O=c1nc[nH]c2[nH]ncc12 ?
5.84e-05

* * *

# run.conditions: in 2-butanone, 293.15 K
experimental.endpoint: solubility (mole fraction)
// print number alone

I am curious: what solubility (mole fraction) value has been reported for O=c1nc[nH]c2[nH]ncc12 ?
0.00138

* * *

# run.conditions: in n-hexanol, 323.15 K
experimental.endpoint: solubility (mole fraction)
// print number alone

I am curious: what solubility (mole fraction) value has been reported for O=c1nc[nH]c2[nH]ncc12 ?
0.00042

* * *

# run.conditions: in ethanol, 288.15 K
experimental.endpoint: solubility (mole fraction)
// print number alone

I am curious: what solubility (mole fraction) value has been reported for O=c1nc[nH]c2[nH]ncc12 ?
4.27e-05

* * *

# run.conditions: in DMF, 293.15 K
experimental.endpoint: solubility (mole fraction)
// print number alone

I am curious: what solubility (mole fraction) value has been reported for O=c1nc[nH]c2[nH]ncc12 ?
0.00373

* * *

# run.conditions: in cyclohexane, 288.15 K
experimental.endpoint: solubility (mole fraction)
// print number alone

I am curious: what solubility (mole fraction) value has been reported for O=c1nc[nH]c2[nH]ncc12 ?
6.38e-07

* * *

# run.conditions: in methanol, 283.15 K
experimental.endpoint: solubility (mole fraction)
// print number alone

I am curious: what solubility (mole fraction) value has been reported for O=c1nc[nH]c2[nH]ncc12 ?
2.7e-05

* * *

# run.conditions: in n-butanol, 303.15 K
experimental.endpoint: solubility (mole fraction)
// print number alone

I am curious: what solubility (mole fraction) value has been reported for O=c1nc[nH]c2[nH]ncc12 ?
0.000184

* * *

# run.conditions: in n-hexanol, 328.15 K
experimental.endpoint: solubility (mole fraction)

I am curious: what solubility (mole fraction) value has been reported for O=c1nc[nH]c2[nH]ncc12 ?
0.000499

* * *

# run.conditions: in NMP, 278.15 K
experimental.endpoint: solubility (mole fraction)
// print number alone

I am curious: what solubility (mole fraction) value has been reported for O=c1nc[nH]c2[nH]ncc12 ?
0.0151

* * *

# run.conditions: in cyclohexane, 323.15 K
experimental.endpoint: solubility (mole fraction)
// print number alone

I am curious: what solubility (mole fraction) value has been reported for O=c1nc[nH]c2[nH]ncc12 ?
3.05e-06

* * *

# run.conditions: in water, 318.15 K
experimental.endpoint: solubility (mole fraction)
// print number alone

I am curious: what solubility (mole fraction) value has been reported for O=c1nc[nH]c2[nH]ncc12 ?
8.32e-05

* * *

# run.conditions: in acetonitrile, 298.15 K
experimental.endpoint: solubility (mole fraction)
// print number alone

I am curious: what solubility (mole fraction) value has been reported for O=c1nc[nH]c2[nH]ncc12 ?
0.000204

* * *

# run.conditions: in n-hexanol, 313.15 K
experimental.endpoint: solubility (mole fraction)

I am curious: what solubility (mole fraction) value has been reported for O=c1nc[nH]c2[nH]ncc12 ?
0.000302

* * *

# run.conditions: in n-butanol, 313.15 K
experimental.endpoint: solubility (mole fraction)

I am curious: what solubility (mole fraction) value has been reported for O=c1nc[nH]c2[nH]ncc12 ?
0.00026

* * *

# run.conditions: in ethanol, 328.15 K
experimental.endpoint: solubility (mole fraction)
// print number alone

I am curious: what solubility (mole fraction) value has been reported for O=c1nc[nH]c2[nH]ncc12 ?
0.000258
